target: JAK2 JH1 JH2 (human) (UniProt O60674); test: radiometric filter-binding kinase assay; conditions: compound 0.1 µM
Sequence (O60674 whole entry, looked up): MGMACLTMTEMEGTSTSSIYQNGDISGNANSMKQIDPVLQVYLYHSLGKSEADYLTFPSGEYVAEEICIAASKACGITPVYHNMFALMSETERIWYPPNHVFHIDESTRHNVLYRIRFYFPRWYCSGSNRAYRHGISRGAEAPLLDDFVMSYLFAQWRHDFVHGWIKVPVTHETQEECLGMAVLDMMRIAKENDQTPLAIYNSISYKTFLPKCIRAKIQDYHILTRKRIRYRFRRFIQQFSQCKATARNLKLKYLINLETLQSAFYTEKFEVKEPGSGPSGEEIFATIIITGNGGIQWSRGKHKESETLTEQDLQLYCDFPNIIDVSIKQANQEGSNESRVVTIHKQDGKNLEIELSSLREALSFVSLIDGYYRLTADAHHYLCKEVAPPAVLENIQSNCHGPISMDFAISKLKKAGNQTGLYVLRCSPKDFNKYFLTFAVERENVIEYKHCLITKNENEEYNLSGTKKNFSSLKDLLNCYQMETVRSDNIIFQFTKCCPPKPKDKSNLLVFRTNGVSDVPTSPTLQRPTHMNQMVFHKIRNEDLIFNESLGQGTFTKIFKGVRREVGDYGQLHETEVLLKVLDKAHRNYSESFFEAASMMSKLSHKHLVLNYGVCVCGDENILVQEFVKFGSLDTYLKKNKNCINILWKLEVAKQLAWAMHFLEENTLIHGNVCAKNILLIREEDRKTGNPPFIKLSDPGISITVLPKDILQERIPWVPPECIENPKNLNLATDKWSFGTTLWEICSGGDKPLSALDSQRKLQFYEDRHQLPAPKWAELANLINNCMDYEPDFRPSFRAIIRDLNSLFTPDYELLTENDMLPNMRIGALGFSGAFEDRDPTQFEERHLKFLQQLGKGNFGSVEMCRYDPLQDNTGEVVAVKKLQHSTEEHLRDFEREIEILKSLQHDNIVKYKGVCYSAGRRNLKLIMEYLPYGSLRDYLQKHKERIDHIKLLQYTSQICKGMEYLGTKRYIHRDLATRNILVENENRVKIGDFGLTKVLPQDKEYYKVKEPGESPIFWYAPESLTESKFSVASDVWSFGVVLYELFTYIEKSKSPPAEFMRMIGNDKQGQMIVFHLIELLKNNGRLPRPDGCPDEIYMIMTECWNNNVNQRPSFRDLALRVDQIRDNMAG
measuredMetric: residual activity (%)

> print(dat)
                               recordsmiles     measuredmetric  readoutvalue
1  NC(=O)c1cc(-c2ccnc(NC3CCCCC3)c2)nc(N2CCNCC2)c1  residual activity            82
2  O=C(Nc1nc2cc(C(F)(F)F)cc(NC3CC3)n2n1)c1cccnc1  residual activity           100
3  C=CC(=O)N1CCC[C@@H](n2nc(-c3ccc(Oc4ccccc4)cc3)c3c(N)ncnc32)C1  residual activity            90
4  NC(=O)c1cc2c(-c3cccc(-c4ccccc4)c3)cnc(N)c2s1  residual activity           101

----------
The following compounds are shown together with reported residual activity values.
tested on: LCK (mouse); assay: radiometric filter-binding kinase assay; conditions: compound 1.0 µM; accession and sequence are those of the human protein
measuredMetric: residual activity (%)

> print(dat)
                                    compound  readoutunits  readoutvalue
 1  Nc1cccc2c1CN(C1CCC(=O)NC1=O)C2=O (configuration not stated)             %           100
 2  COc1cc(O)c2c(c1)/C=C/C[C@H](O)[C@H](O)C(=O)/C=C\C[C@H](C)OC2=O             %            30
 3            Oc1ccc(/C=C/c2cc(O)cc(O)c2)cc1             %           115
 4  NC(=O)c1cc(-c2ccnc(NC3CCCCC3)c2)nc(N2CCNCC2)c1             %            30
 5  NC(=O)Nc1ccc2c(c1)/C(=C/c1cc(-c3cccnc3)c[nH]1)C(=O)N2             %            10
 6  O=C(Nc1nc2cc(C(F)(F)F)cc(NC3CC3)n2n1)c1cccnc1             %            95
 7                  Cc1ccc(=O)n(-c2ccccc2)c1             %            96
 8  O=C(Nc1cccnc1)c1cc(-c2ccnc(F)c2)ccc1OCc1ccccc1             %           113
 9   Cc1nc(-c2ccc(OCC(C)C)c(C#N)c2)sc1C(=O)O             %           110
10  O=C(NOC[C@H](O)CO)c1ccc(F)c(F)c1Nc1ccc(I)cc1Cl             %            92
11  COc1ccc(-n2ncc3cnc(Nc4cc(OC)c(OC)c(OCCCN5CCN(C)CC5)c4)nc32)cc1             %             4
12  C=C1C(=O)OC2C1CC/C(C)=C/CCC1(C)OC21 (configuration not stated)             %           112
13  O=C(O)c1ccc(-c2c[nH]c3ncc(-c4ccccc4)cc23)cc1C1CCCC1             %            79
14    CCn1c(-c2nonc2N)nc2cncc(CNC3CCNCC3)c21             %            99
15  NC(=O)c1ccc(-c2ccc(Oc3cncc4sc(-c5nn[nH]n5)cc34)cc2)cc1             %           113
16  CNC(=O)C1[C@H]2O[C@@](C)([C@@H]1N)n1c3ccccc3c3c4c(c5c6ccccc6n2c5c31)C(=O)NC4 (some centres not stated)             %             3
17        Oc1ccc2ccccc2c1SSc1c(O)ccc2ccccc12             %            99
18  Cc1cccc(-c2nn(C(=S)Nc3ccccc3)cc2-c2ccnc3ccccc23)n1             %            62
19                           CCCC(CCC)C(=O)O             %            84
20  O=C(N[C@@H](COc1ccc2[nH]c(=O)[nH]c2c1)c1ccccc1)c1cccn(Cc2ccc(F)c(F)c2)c1=O             %           101
21  N#Cc1c(C2CCNCC2)cc(-c2c(O)cccc2OCC2CC2)nc1N             %            82
22  CCCCCc1ccc(/C=C/[C@H](O)[C@@H](CO)NC)cc1             %            92
23  NCC(=O)Nc1ccc(-n2nc(C(F)(F)F)cc2-c2ccc3c(ccc4ccccc43)c2)cc1             %            84
24  O=C(NCCCNc1nc(Nc2cccc(CN3CCOCC3)c2)ncc1C1CC1)C1CCC1             %            67
25  Cc1cc(SCc2sc(-c3ccc(C(F)(F)F)cc3)nc2C)ccc1OCC(=O)O             %           106
26  CNc1nc(-c2ccc3c(N)n[nH]c3c2)cc(N2C[C@@H](C(=O)NC3CCCCC3)CC[C@H]2C)n1             %            97
27  Cc1ccc(-c2ccc3c(ccc4sc5c(c43)NC[C@@H](C)NC5=O)n2)cn1             %            95
28  O=C(Nc1ccccc1-c1cn2c(CN3CCNCC3)csc2n1)c1cnc2ccccc2n1             %           106
29  CCc1cncnc1N1CCN(Cc2nc3cc(C(F)(F)F)ccc3[nH]2)CC1             %            92
30  CN(C)C/C=C/C(=O)Nc1cccc(C(=O)Nc2ccc(Nc3nccc(-c4cccnc4)n3)cc2)c1             %           101
31  CCNc1nc(Nc2cc(F)c(C(=O)N3CCOCC3)cc2OC)ncc1C(F)(F)F             %           108
32           Cc1cccc(Nc2nn(C)c3ncnc(N)c23)c1             %           125
33  O=C(O)c1cc(N=Nc2ccc(S(=O)(=O)Nc3ccccn3)cc2)ccc1O             %           102
34    CN1C(=O)[C@@H](Cc2c[nH]c3ccccc23)NC1=S             %           116
35  O=C(NOCC(O)CO)c1ccc(F)c(F)c1Nc1ccc(I)cc1Cl (configuration not stated)             %            93
36  Cc1cc(NC(=O)c2cccc(NC(=O)/C=C/CN(C)C)c2)ccc1Nc1nccc(-c2cccnc2)n1             %            92
37  c1ccc2c(-c3cnn4cc(-c5ccc(N6CCNCC6)cc5)cnc34)ccnc2c1             %            40
38  COc1cc2ncn(-c3cc(OCc4ccccc4S(C)(=O)=O)c(C#N)s3)c2cc1OC             %            35
39  COc1ccc(N(C(=O)Nc2c(C)cccc2C)c2cc(Nc3ccc(N4CCN(C)CC4)cc3)ncn2)c(OC)c1             %            47
40           Cn1nc(Nc2ccc(F)cc2)c2c(N)ncnc21             %           112
41       O=C1NC(=S)N[C@@H]1Cc1c[nH]c2ccccc12             %            74
42          NC(=O)c1c(NC(=O)C2CC2)sc2c1CCCC2             %            98

# credit: the kinase profiling compilation of Christmann-Franck et al. (2016)
